The reported measurements were obtained from PubChem BioAssay (NCI).

Measured growth inhibition of individual entries
experiment: NCI Yeast Anticancer Drug Screen. Data for the bub3 strain (AID 167); conditions: S. cerevisiae bub3 mutant strain, at 50.0 µM, active compounds read high
About 79,000 compounds went through this panel and 15% of them were active in at least one assay; those are over-represented in the sample as a whole.
Field: numeric (%). Do not append units.

What measured growth inhibition goes with COc1ccc2c(c1)[n+]([O-])c(S(=O)(=O)c1ccc(C)cc1)c(N)[n+]2[O-] ?
99

For CCCN(CCC)c1ccc(/C=C/c2ccnc3ccccc23)cc1 then?
92

How about CCC(=O)OC1=C(Cl)C(=O)c2ccccc2C1=O ?
34.5

---

assay: NCI Yeast Anticancer Drug Screen. Data for the mec2-1 strain (AID 157); details: S. cerevisiae mec2-1 strain, at 5.0 µM (retest, dose inferred, filed as 0.5)
About 79,000 compounds went through this panel and 15% of them were active in at least one assay; those are over-represented in the sample as a whole. Activity calls are given as the source filed them. No stated cut-off is given here; in the data, active means growth inhibition above about 70%; inactive means the rest.
Permitted responses: yes = active, no = inactive

Past entries and their recorded results:
molecule: c1nc(N2CCOCC2)c2[nH]cnc2n1
categoryLabel: no
--
molecule: O=C(NCCNCCNCCNC(=O)c1cc(-c2ccccc2)nc2ccccc12)c1cc(-c2ccccc2)nc2ccccc12
categoryLabel: no
--
molecule: Fc1cccc(C2SCc3nc4ccccc4n32)c1F (stereo not drawn)
categoryLabel: no
--
molecule: Cc1c(N)nc(C2CC(=O)N2CC(N)C(N)=O)nc1C(=O)NC(C(=O)NC(C)C(O)C(C)C(=O)NC(C(=O)NCCc1nc(-c2nc(C(=O)NCCNCC(C)O)cs2)cs1)C(C)O)C(OC1OC(CO)C(O)C(O)C1OC1OC(CO)C(O)C(OC(N)=O)C1O)c1cnc[nH]1 (stereo not drawn)
categoryLabel: yes
--
molecule: OCCOc1ccc2ccccc2c1-c1c(OCCOc2ccc3ccccc3c2-c2c(OCCO)ccc3ccccc23)ccc2ccccc12
categoryLabel: no

Tell me the recorded outcome of this test for O=C(c1ccccc1)C(C(=O)c1ccccc1)c1ccc2ccccc2n1 .
no

# iterate: CCOC(=O)C(Cc1ccc(O)c(C=O)c1)NC(C)=O (stereo not drawn)
no

Same question for COC(=O)c1c(/C(=N/Nc2ccc([N+](=O)[O-])cc2)[N+](=O)[O-])ssc1=N please.
no

---

test: NCI Yeast Anticancer Drug Screen. Data for the cln2 rad14 strain (AID 165);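 further: 0% = growth equal to vehicle treated cultures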; details: S. cerevisiae cln2 rad14 strain, at 50.0 µM, active compounds read high
The panel holds about 79,000 compounds, 15% with a hit somewhere; the sample as a whole holds those more often.
The compounds listed here are annotated with their growth inhibition.
Provide only the numeric value, understood in %.

compound: CC(=O)N[C@H]1CCC2[C@@H]3CCC4=CC(=O)NCC[C@]4(C)C3CC[C@@]21C (stereo partly specified)
growth inhibition, %: 69.5

Suppose we examine the compound COC1/C=C\OC2(C)Oc3c(C)c(O)c4c(c3C2=O)C2=NC(C)(C)N(c3ccccc3)C2=C(NC(=O)/C(C)=C\C=C\C(C)C(O)C(C)C(O)C(C)C(OC(C)=O)C1C)C4=O (stereo unspecified) ; what growth inhibition value has been reported?
39.9

Try Oc1ccccc1N=CC1CCCCC1 next.
17

Now try CC12CC(Sc3ccccc3N1)c1ccccc1O2 (stereo unspecified) .
27.4

Could you do the same for O=C(C[N+]12CN3CN(CN(C3)C1)C2)c1ccc(Cl)cc1Cl , please?
99.2

Would you mind doing C=C(CN(C)C)C(=O)c1ccccc1Cl as well?
7.9
